- System: non-small cell lung cancer cell line H460
- Procedure text: In vitro human cancer cell line cytotoxicity (proliferation) assay in H460, CellTiter-Glo, 72 hours
- Assay type: cell-based
- Stated conditions: Homo sapiens, NCI-H460, 72 h, H460 cells, DMSO condition (no AKR1C3 inhibitor), read-out: CTG H460: Avg IC50 (nM) [Assay Condition: DMSO]
Readout kind: IC50

Molecule | IC50
O=[N+]([O-])c1cc2oc(COP(=O)(N3CC3)N3CC3)cc2cc1Oc1cccc(-c2cccnc2)c1 | < 10 nM
Cn1ccc2c(F)cc(Oc3c([N+](=O)[O-])ccc4c3CC[C@@H]4OP(=O)(N3CC3)N3CC3)cc21 (single isomer, unassigned) | < 10 nM
CC(OP(=O)(N1CC1)N1CC1)c1ccc([N+](=O)[O-])c(Cn2ccc(=O)cc2)c1 (stereo not drawn) | ≥ 100 nM
CC(OP(=O)(N1C[C@@H]1C)N1C[C@@H]1C)c1ccc([N+](=O)[O-])c(Oc2ccc(C(=O)N(C)C)cc2)c1 (stereo partly drawn) | < 10 nM
O=C(c1cccc(Oc2c([N+](=O)[O-])ccc3c2CCC3OP(=O)(N2CC2)N2CC2)c1)N1CCC(F)(F)CC1 (stereo not drawn) | < 10 nM

# input for lookup
Challenge: Supply IC50 value. Item: O=C1c2cc(Oc3c([N+](=O)[O-])ccc4c3CC[C@H]4OP(=O)(N3CC3)N3CC3)ccc2CN1C1CC1 (single isomer, unassigned)
Response given: < 10 nM
